Target: HLA-A*02:12
Experiment: IEDB peptide-MHC binding, purified MHC/competitive/fluorescence; filed as Kd, often an IC50 or EC50 that approximates it; bounds were set here for any values at or beyond the usual limits of such assays
Conditions: source organism: Canarypox virus
pKd: −log10 of the molar value.
Measured parameter: pKd

## Input Requested read-out: pKd. Entry: GTIIVHPNK
## Output ≤ 4.70

---

Molecular target: HLA-A*68:01
Assay: IEDB peptide-MHC binding, purified MHC/competitive/radioactivity; filed as Kd, often an IC50 or EC50 that approximates it; bounds were set here for any values at or beyond the usual limits of such assays
Conditions: source organism: Mammarenavirus brazilense
pKd: −log10 of the molar value.
Measured parameter: pKd

## Input Requested read-out: pKd. Entry: KAGQNIRLSH
## Output ≤ 4.15

---

Target: HLA-B*57:01
Test: IEDB peptide-MHC binding, purified MHC/direct/fluorescence; filed as Kd, often an IC50 or EC50 that approximates it; bounds were set here for any values at or beyond the usual limits of such assays
Conditions: source organism: Marburg virus - Musoke, Kenya, 1980
Measured parameter: pKd
Would you please state pKd, meaning minus log10 of the concentration in mol/L, as a bare number?

## Input Enter reported pKd observed with HLA-B*57:01 for ATAVNQECW
## Output 6.91

---

Target: HLA-B*15:09
Assay: IEDB peptide-MHC binding, purified MHC/direct/fluorescence; filed as Kd, often an IC50 or EC50 that approximates it; bounds were set here for any values at or beyond the usual limits of such assays
Conditions: source organism: Mycobacterium tuberculosis str. Haarlem
Measured parameter: Kd

## Input Requested read-out: Kd. Entry: WEITYLGTT
## Output ≥ 20 µM

---

Target: HLA-A*31:01
Assay: IEDB peptide-MHC binding, purified MHC/direct/fluorescence; filed as Kd, often an IC50 or EC50 that approximates it; bounds were set here for any values at or beyond the usual limits of such assays
Conditions: source organism: Influenza A virus (A/tiger/Thailand/CU-T4/04(H5N1))
pKd: −log10 of the molar value.
Measured parameter: pKd

## Input Requested read-out: pKd. Entry: TMLYNKMEF
## Output ≤ 4.70

---

Molecular target: HLA-A*24:03
Assay: IEDB peptide-MHC binding, purified MHC/competitive/fluorescence; filed as Kd, often an IC50 or EC50 that approximates it; bounds were set here for any values at or beyond the usual limits of such assays
Details: source organism: Canarypox virus
Measured parameter: Kd

## Input Requested read-out: Kd. Entry: GTIIVHPNK
## Output ≥ 20 µM

---

Biological target: HLA-A*31:01
Assay: IEDB peptide-MHC binding, purified MHC/direct/fluorescence; filed as Kd, often an IC50 or EC50 that approximates it; bounds were set here for any values at or beyond the usual limits of such assays
Conditions: source organism: Vibrio vulnificus YJ016
Measured parameter: Kd

## Input Enter reported Kd observed with HLA-A*31:01 for EPADHLAIM
## Output ≥ 20 µM

---

Target: HLA-B*53:01
Assay: IEDB peptide-MHC binding, purified MHC/competitive/radioactivity; filed as Kd, often an IC50 or EC50 that approximates it; bounds were set here for any values at or beyond the usual limits of such assays
Details: source organism: Dengue virus 2 Jamaica/1409/1983
Measured parameter: Kd (nM)
Give just the numeric value; nM need not be written.

Examples with answers:
| Sequence record | Target of assay | Value units | Kd |
| --- | --- | --- | --- |
| NAVILQNAW | HLA-B*53:01 | nM | 80.6 |
| MPSVIEKMET | HLA-B*53:01 | nM | 1610 |
| RPASAWTLY | HLA-B*53:01 | nM | 87.5 |

Moving on to another sequence below.
## Input Requested read-out: Kd. Entry: NPTAIFLTT
## Output 1680

---

Molecular target: HLA-A*11:01
Assay: IEDB peptide-MHC binding, purified MHC/competitive/fluorescence; filed as Kd, often an IC50 or EC50 that approximates it; bounds were set here for any values at or beyond the usual limits of such assays
Conditions: source organism: Mycobacterium tuberculosis H37Ra
Measured parameter: Kd (nM)
Give just the numeric value; nM need not be written.

## Input Enter reported Kd observed with HLA-A*11:01 for AVYLLDGLR
## Output 127

---

Recorded IC50 values for a group of sequences are listed next.
Biological target: HLA-A*11:01
Assay: IEDB peptide-MHC binding, purified MHC/competitive/fluorescence; bounds were set here for any values at or beyond the usual limits of such assays
Conditions: source organism: Vaccinia virus WR
Give just the numeric value; µM need not be written.

| Sequence record | Value units | IC50 |
| --- | --- | --- |
| QAFYTRVLK | µM | 0.311 |

## Input Enter reported IC50 observed with HLA-A*11:01 for ETLGYCMIR
## Output 25.2

---

Molecular target: HLA-A*02:03
Test: IEDB peptide-MHC binding, purified MHC/competitive/radioactivity; filed as Kd, often an IC50 or EC50 that approximates it; bounds were set here for any values at or beyond the usual limits of such assays
Conditions: source organism: Hepatitis C virus (isolate H)
Measured parameter: Kd (µM)
Give just the numeric value; µM need not be written.

## Input Requested read-out: Kd. Entry: HPALVFDITK
## Output 7.41

---

Recorded Kd values for a group of sequences are listed next.
Target: HLA-A*31:01
Assay: IEDB peptide-MHC binding, purified MHC/competitive/radioactivity; filed as Kd, often an IC50 or EC50 that approximates it; bounds were set here for any values at or beyond the usual limits of such assays
Conditions: source organism: Dengue virus 4 Philippines/H241/1956
Give just the numeric value; nM need not be written.

Examples with answers:
| Sequence record | Measured parameter | Quantitative readout |
| --- | --- | --- |
| AAQRRGRIGR | Kd | 2.16 |
| KATLTEGVYR | Kd | 76 |

## Input Requested read-out: Kd. Entry: VLAFITFLR
## Output 4.41

## Input Requested read-out: Kd. Entry: TMPLVMAWR
## Output 8.48

---

Target: HLA-B*07:02
Experiment: IEDB peptide-MHC binding, purified MHC/competitive/radioactivity; filed as Kd, often an IC50 or EC50 that approximates it; bounds were set here for any values at or beyond the usual limits of such assays
Details: source organism: Dengue virus 3 Sri Lanka/1266/2000
Measured parameter: Kd

## Input Requested read-out: Kd. Entry: LPAALAFHL
## Output 72.4 nM

---

Molecular target: HLA-A*69:01
Assay: IEDB peptide-MHC binding, purified MHC/direct/fluorescence; filed as Kd, often an IC50 or EC50 that approximates it; bounds were set here for any values at or beyond the usual limits of such assays
Details: source organism: Influenza A virus (A/Hong Kong/516/97(H5N1))
pKd: −log10 of the molar value.
Measured parameter: pKd

## Input Requested read-out: pKd. Entry: SYINRTGTF
## Output ≤ 4.70

---

Recorded IC50 values for a group of sequences are listed next.
Molecular target: HLA-A*24:02
Assay: IEDB peptide-MHC binding, purified MHC/competitive/fluorescence; bounds were set here for any values at or beyond the usual limits of such assays
Details: source organism: Sudan ebolavirus
Give just the numeric value; nM need not be written.

| Sequence record | Target of assay | IC50, nM |
| --- | --- | --- |
| KSSFFVWVI | HLA-A*24:02 | 69.4 |

Moving on to another sequence below.
## Input Requested read-out: IC50. Entry: QHSTTLFKI
## Output 2120

---

Target: HLA-A*03:01
Experiment: IEDB peptide-MHC binding, purified MHC/direct/fluorescence; filed as Kd, often an IC50 or EC50 that approximates it; bounds were set here for any values at or beyond the usual limits of such assays
Details: source organism: Mycobacterium avium 104
pKd: −log10 of the molar value.
Measured parameter: pKd

## Input Enter reported pKd observed with HLA-A*03:01 for IAHVRDVVM
## Output ≤ 4.70

---

Biological target: HLA-A*01:01
Test: IEDB peptide-MHC binding, purified MHC/direct/fluorescence; filed as Kd, often an IC50 or EC50 that approximates it; bounds were set here for any values at or beyond the usual limits of such assays
Conditions: source organism: Yersinia pestis Nepal516
pKd: −log10 of the molar value.
Measured parameter: pKd

## Input Requested read-out: pKd. Entry: QQSEARRML
## Output ≤ 4.70

---

Biological target: HLA-A*31:01
Assay: IEDB peptide-MHC binding, purified MHC/direct/fluorescence; filed as Kd, often an IC50 or EC50 that approximates it; bounds were set here for any values at or beyond the usual limits of such assays
Details: source organism: Cryptosporidium parvum
Measured parameter: Kd (nM)
Give just the numeric value; nM need not be written.

## Input Requested read-out: Kd. Entry: MIRTWRQNK
## Output 364

---

Target: HLA-B*40:01
Experiment: IEDB peptide-MHC binding, purified MHC/direct/fluorescence; filed as Kd, often an IC50 or EC50 that approximates it; bounds were set here for any values at or beyond the usual limits of such assays
Details: source organism: Vibrio cholerae
Measured parameter: Kd

## Input Requested read-out: Kd. Entry: MMFDAMGAL
## Output ≥ 20 µM
